measurement-target: Cyclin-dependent kinase 4/cyclin D1 (Homo sapiens) (UniProt P11802+P24385)
measurement-protocol: Inhibitory activity against Cyclin D1-cyclin-dependent kinase 4
Type: protein-complex assay
Parameters: concentration or dose not given beside the values
setup-conditions: concentration not given here
readout-name: inhibition (%)
Reply with just the number (in %).

# input compound: Cc1ccc(COc2cccc(/C=C/C=O)c2)cc1 ; wanted: its inhibition
84

====

measurement-target: Cyclin-dependent kinase 4/cyclin D1 (Homo sapiens) (UniProt P11802+P24385)
measurement-protocol: Inhibitory activity against Cyclin D1-cyclin-dependent kinase 4
Type: protein-complex assay
Parameters: concentration or dose not given beside the values
setup-conditions: concentration not given here
readout-name: inhibition (%)
Reply with just the number (in %).

Some solved entries appear below for comparison.
# input compound: O=C/C=C/c1cccc(OCCc2ccccc2)c1 ; wanted: its inhibition
80

# input compound: Cc1ccccc1COc1cccc(/C=C/C=O)c1 ; wanted: its inhibition
73

# input compound: O=C/C=C/c1ccccc1OCc1cccc2ccccc12 ; wanted: its inhibition
38

# input compound: O=C/C=C/c1ccccc1Cl ; wanted: its inhibition
51

# input compound: N#Cc1ccccc1COc1ccccc1/C=C/C=O ; wanted: its inhibition
22

Continuing:
# input compound: O=C/C=C/c1cccc(O)c1 ; wanted: its inhibition
40
